# tested-target: FGFR2 (Homo sapiens (Human))
# test-summary: Biochemical FGFR2 Caliper assay
IC50 listing for selected compounds.

Worked cases, answers included:
compound	IC50
C=C(C)C(=O)Nc1cc(-c2c(-c3ccc(Oc4nccc(C)n4)c(F)c3)c3c(N)ncnc3n2C)n(C)n1 [Example 1161]	< 100 nM
C#Cc1cc(C)c(-c2c(C3=CC[C@@]4(CC3)Cc3ccc(C)nc3O4)c3c(C)ncnc3n2C)cn1 [Example 1392]	1000 to 100000 nM
C=C(C)C(=O)Nc1ccc(-c2c(C3=CC[C@@H](C(=O)N4CC[C@H]5C[C@H]54)CC3)c3c(N)ncnc3n2C)cc1 (single isomer, unassigned) [Example 1039]	1000 to 100000 nM
C=C(C)C(=O)Nc1ccc(-c2c(-c3ccc(C(=O)NC4CC(F)(F)C4)c(OC)c3)c3c(N)ncnc3n2C)cc1 [Example 912]	< 100 nM
C=C(C)C(=O)Nc1ccc(-c2c(C3=CC[C@@H](C(=O)N4CCC[C@H]4COC)CC3)c3c(N)ncnc3n2C)cc1 (single isomer, unassigned) [Example 981]	250 to 1000 nM

Please turn your attention to the following entry.
Request the reported IC50 associated with Cn1c(-c2ccc(C#N)cc2)c(-c2ccccc2)c2c(N)ncnc21 [Example 1173]
1000 to 100000 nM

---

# tested-target: UniProt P21802
# test-summary: Biochemical FGFR2 Caliper assay
metric: IC50

> print(dat)
                                   compound  observed.measurement
1  C=C(C)C(=O)Nc1ccc(-c2c(-c3ccc4ccncc4c3)c3c(N)ncnc3n2C)cc1 [Example 1272]     1000 to 100000 nM
2  C=C(C)C(=O)Nc1ccc(-c2c(C3=CC[C@H](C(=O)N4CCCC[C@H]4C)CC3)c3c(N)ncnc3n2C)cc1 [Example 994]     1000 to 100000 nM
3  Cn1c(-c2ccc(NC(=O)C3CN3)cc2)c(-c2ccc(C(=O)N3CCCC3)cc2)c2c(N)ncnc21 (stereo not shown) [Example 901]     1000 to 100000 nM
4  C=C(C)C(=O)Nc1ccc(-c2c(C3=CC[C@]4(CC3)Cc3ccccc3C4=O)c3c(N)ncnc3n2C)cc1 (single isomer, unassigned) [Example 988]        250 to 1000 nM
5  C#Cc1nc2cc(-c3c(C4=CC[C@@H](C(=O)N5CCCC5)CC4)c4c(N)ncnc4n3C)ccc2n1C [Example 1369]              < 100 nM
6  C=C(C)C(=O)Nc1ccc(-c2c(C3=CC[C@@]4(CC3)Cc3ccc(C)nc3C4=O)c3c(N)ncnc3n2C)cc1 (single isomer, unassigned) [Example 1366]     1000 to 100000 nM

Notebook: pull reported IC50 for UniProt P21802, entry C=CC(=O)Nc1cccc(-c2c(C3=CC[C@@H](C(=O)N4CCCC4)CC3)c3c(N)ncnc3n2C)c1 [Example 1019]
< 100 nM

---

# tested-target: FGFR2 (Homo sapiens (Human), UniProt P21802)
# Sequence (P21802 22-821): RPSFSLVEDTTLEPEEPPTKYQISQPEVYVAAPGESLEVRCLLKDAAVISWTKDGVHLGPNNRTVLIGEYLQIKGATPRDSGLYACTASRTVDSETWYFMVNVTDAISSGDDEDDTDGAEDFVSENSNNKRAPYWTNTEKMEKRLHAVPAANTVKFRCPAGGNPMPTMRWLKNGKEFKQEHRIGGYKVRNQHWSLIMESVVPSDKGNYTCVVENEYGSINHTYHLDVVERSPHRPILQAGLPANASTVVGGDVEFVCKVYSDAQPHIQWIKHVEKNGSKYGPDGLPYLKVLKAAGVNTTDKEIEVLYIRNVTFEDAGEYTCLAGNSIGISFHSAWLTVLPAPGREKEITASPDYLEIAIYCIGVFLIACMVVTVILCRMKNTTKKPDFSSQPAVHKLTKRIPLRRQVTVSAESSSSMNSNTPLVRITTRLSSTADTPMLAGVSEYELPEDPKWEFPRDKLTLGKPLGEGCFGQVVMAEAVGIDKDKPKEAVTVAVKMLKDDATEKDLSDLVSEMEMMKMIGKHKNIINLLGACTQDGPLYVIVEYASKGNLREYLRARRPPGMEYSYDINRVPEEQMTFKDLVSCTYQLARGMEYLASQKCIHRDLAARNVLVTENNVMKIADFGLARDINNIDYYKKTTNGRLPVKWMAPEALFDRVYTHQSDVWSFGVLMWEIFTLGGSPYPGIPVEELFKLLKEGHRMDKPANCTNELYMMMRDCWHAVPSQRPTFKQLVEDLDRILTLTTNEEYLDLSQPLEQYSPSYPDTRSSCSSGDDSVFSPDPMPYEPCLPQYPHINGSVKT
# test-summary: Biochemical FGFR2 Caliper assay
metric: IC50

// known answers, use as guide
> print(dat)
                                   compound                             tested.target  observed.measurement
1  C=C(CN(C)C)C(=O)Nc1ccc(-c2c(-c3ccc(C(=O)NCC4(F)COC4)cc3)c3c(N)ncnc3n2C)cc1 [Example 1044]  FGFR2 (Homo sapiens (Human), UniProt P21802)              < 100 nM
2  CNC(=O)/C(C#N)=C/c1ccc(-c2c(-c3ccc(Oc4nccc(C)n4)c(F)c3)c3c(N)ncnc3n2C)c(C)c1 [Example 1309]  FGFR2 (Homo sapiens (Human), UniProt P21802)              < 100 nM
3  C=C1CCCN(c2ccc(-c3c(-c4ccc(Oc5nccc(C)n5)cc4)c4c(N)ncnc4n3C)cc2)C1=O [Example 1087]  FGFR2 (Homo sapiens (Human), UniProt P21802)              < 100 nM
4  C=C1CCN(c2ccc(-c3c(C4=CC[C@@H](C(=O)N5CCCC5)CC4)c4c(N)ncnc4n3C)cc2)C1=O (single isomer, unassigned) [Example 1134]  FGFR2 (Homo sapiens (Human), UniProt P21802)        250 to 1000 nM
5  C#Cc1ncc(-c2c(-c3ccc(Oc4nccc(C)n4)c(F)c3)c3c(N)ncnc3n2C)c(C)n1 [Example 1153]  FGFR2 (Homo sapiens (Human), UniProt P21802)              < 100 nM

I would be grateful if you could share the reported IC50 for C=CC(=O)N1CCC(c2c(-c3ccc(N4CCCC4)c(C(F)(F)F)c3)c3c(N)ncnc3n2C)C1 (stereo not shown) [Example 800] .
< 100 nM

Bench note: what IC50 did C=CC(=O)Nc1ccc(-c2c(-c3ccc(Oc4nccc(C)n4)c(C)c3)c3c(N)ncnc3n2C)c(C)c1 [Example 1083] show?
250 to 1000 nM
